# Test system: 885724-159-R-J1-PDC complex spheroid viability;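 further: spheroids exposed to agents for seven days before readout; percent of vehicle control viability where 100% = DMSO wells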
# experiment: Anticancer human tumor 885724-159-R-J1-PDC patient-derived pancreatic adenocarcinoma cell line growth inhibition [GQUAD]
# conditionDescription: second compound 10 µM; first compound 3.16 µM; active compounds read low
measure: viability, T/C (%)
# unit: % | format: bare number

Lab note: need viability, T/C with 885724-159-R-J1-PDC complex spheroid viability for entry O=C(NO)c1cnc(N2CCN(S(=O)(=O)c3ccc4ccccc4c3)CC2)nc1 + Cc1cnc(CNC(=O)c2c(=O)c3ccc(N4CCCN(C)CC4)nc3n3c2sc2ccccc23)cn1 , please look it up. 0.26

Lab note: need viability, T/C with 885724-159-R-J1-PDC complex spheroid viability for entry Cc1cccc(N(C)C(=O)C2C(O)CCN2c2nc(C)cc(C(F)(F)F)c2C#N)c1 (stereo not drawn) + Cc1[nH]c2ccc(F)cc2c1-c1nc2c3cccnc3c3ncccc3c2[nH]1 , please look it up. 80.9

Lab note: need viability, T/C with 885724-159-R-J1-PDC complex spheroid viability for entry C=CCn1c(=O)c2cnc(Nc3ccc(N4CCN(C)CC4)cc3)nc2n1-c1cccc(C(C)(C)O)n1 + Cc1cnc(CNC(=O)c2c(=O)c3ccc(N4CCCN(C)CC4)nc3n3c2sc2ccccc23)cn1 , please look it up. 69.8

Every entry's value here was drawn from PubChem BioAssay AID2060502.
